# Tested Target: photosystem II D1 protein (PSBD1; psbA)
# Construct: psbA cloned BamHI/HindIII into pFastBac1; His-tagged (kept, captured on NTA sensor), Ni column from sonicated pellet supernatant; recombinant plasmid printed as 5238 bp, small for a full-length psbA insert; isolated D1 without other PSII subunits or cofactors; PDB 7ZCL is the docking model only
# Experiment Summary: biolayer interferometry (Octet R8, NTA sensor)
# Run Parameters: PBS, 5% DMSO; analyte 1 mM; His-tagged protein immobilised on NTA sensor; read-out: affinity constant
Parameter: Kd (µM)
One number for each entry, in µM.

Memo: COC(=O)c1c([S+](C)[O-])[nH]c2ccccc12 (stereo not shown) [brassicanate A sulfoxide] , reported Kd: 2690
